Target: T1, Human LILRA5 on transiently transfected HEK293-6E cells (human, UniProt A6NI73 42-299)
T1 construct: whole, on cells; also called hLILRA5
T1 sequence (A6NI73 42-299): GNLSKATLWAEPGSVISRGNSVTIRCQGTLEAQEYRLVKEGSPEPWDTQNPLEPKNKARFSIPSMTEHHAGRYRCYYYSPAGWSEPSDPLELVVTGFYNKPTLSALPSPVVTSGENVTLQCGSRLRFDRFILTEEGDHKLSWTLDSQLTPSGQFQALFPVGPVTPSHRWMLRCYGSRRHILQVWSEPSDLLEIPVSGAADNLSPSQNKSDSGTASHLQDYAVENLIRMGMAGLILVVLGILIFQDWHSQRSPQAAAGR
Assay: flow cytometry, transiently transfected HEK293-6E cells
Method: To determine that the anti-LILRB2 antibodies specifically bind to LILRB2 and not other LILRB and LILRA family members, a cross-reactivity assay was performed. Cross-reactivity of the LILRB2 antibodies to other LILRB proteins was assessed by antibody binding to transiently transfected HEK293-6E cells, measured by flow cytometry. […]
outcome.measure: Bmax (MFI)
All answers are understood in MFI, so give the number only.

**Q:** For B2H1-55 (antibody, V domains shown, Humanized variant, human IgG1 / kappa; also called humanized variant B2H1-55; humanized LILRB2 antibody B2H1-55) VH: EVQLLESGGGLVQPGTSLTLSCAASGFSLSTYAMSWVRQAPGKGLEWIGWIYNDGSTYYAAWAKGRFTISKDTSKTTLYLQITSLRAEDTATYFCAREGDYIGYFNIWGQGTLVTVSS VL: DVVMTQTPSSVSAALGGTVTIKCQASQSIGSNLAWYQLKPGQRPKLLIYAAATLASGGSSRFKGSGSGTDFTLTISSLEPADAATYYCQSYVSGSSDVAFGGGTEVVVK , what is its reported Bmax (MFI)?
**A:** 129
